Origin of values: patent US20250250357A1

Target: T1, human MSLN-FL-his protein (human, UniProt Q13421 296-580)
T1 construct: also called human MSLN full-length protein; hMSLN-FL-his; not shown: His tag
T1 sequence (Q13421 other isoform, or with tags, fused parts or gaps): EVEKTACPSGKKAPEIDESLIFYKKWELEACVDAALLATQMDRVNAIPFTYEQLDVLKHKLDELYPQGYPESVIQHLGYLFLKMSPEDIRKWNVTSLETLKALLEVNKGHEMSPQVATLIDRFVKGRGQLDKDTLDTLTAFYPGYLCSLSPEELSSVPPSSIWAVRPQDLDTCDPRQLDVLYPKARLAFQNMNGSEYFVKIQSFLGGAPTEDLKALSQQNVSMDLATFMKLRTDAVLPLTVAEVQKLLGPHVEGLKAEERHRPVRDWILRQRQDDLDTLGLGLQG
Test: ELISA, coated antigen; antibody 100 nM
READOUT KIND: OD450 (OD450)

>>> measured("S009-F5-9.16 (antibody, human IgG1, kappa, V domains shown, Human-murine chimeric antibody, human IgG1/kappa constant regions) VH: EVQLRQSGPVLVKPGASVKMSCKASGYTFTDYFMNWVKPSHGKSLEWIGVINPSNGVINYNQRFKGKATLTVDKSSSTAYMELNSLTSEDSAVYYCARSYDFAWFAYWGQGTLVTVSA VL: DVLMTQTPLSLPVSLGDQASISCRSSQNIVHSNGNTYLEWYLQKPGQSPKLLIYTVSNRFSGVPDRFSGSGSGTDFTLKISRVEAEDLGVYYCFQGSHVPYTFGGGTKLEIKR")
1.12
>>> measured("S009-F6-76.1 (antibody, human IgG1, kappa, V domains shown, Human-murine chimeric antibody, human IgG1/kappa constant regions) VH: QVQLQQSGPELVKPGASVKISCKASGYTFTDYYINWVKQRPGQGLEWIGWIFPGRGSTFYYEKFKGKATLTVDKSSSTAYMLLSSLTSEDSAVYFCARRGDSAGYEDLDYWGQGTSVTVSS VL: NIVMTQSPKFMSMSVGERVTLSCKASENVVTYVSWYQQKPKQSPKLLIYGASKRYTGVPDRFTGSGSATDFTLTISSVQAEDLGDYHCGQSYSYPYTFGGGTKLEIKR")
2.83
